Each entry below carries its reported normalized growth.
- ASSAY_OVERVIEW: chemical genetic growth profiling, strain panel (AID 1159580);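 also: tested at 20 µM; growth read once vehicle control cultures reached saturation at 30 °C; 1 = growth at the plate median or of vehicle wells; lower values mean less growth of the strain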
- PROTOCOL_CONDITIONS: S. cerevisiae deletion strains, growth OD, locus YHR013C, strain ard1, stronger effect = lower value
Out of some 5,500 compounds screened, about 2,000 (36%) were called active. Another 18% or so got no clear call; they are omitted. The list shows a part of the results.
EXPERIMENTAL_READOUT: normalized growth

| COMPOUND | VALUE_REPORTED |
| --- | --- |
| COC(=O)C1=COC(OC2OC(CO)C(O)C(O)C2O)C2C(C)CC(=O)C12 (stereo not drawn) | 1.07 |
| CCCCCCCCC(=O)NCc1ccc(O)c(OC)c1 | 0.992 |
| COc1cc(CNC(=O)CCCC/C=C/C(C)C)ccc1O | 0.999 |

All figures here come from PubChem BioAssay AID1159580.
